target: human Claudin-6 (CLDN6) (human) (UniProt P56747); assay: flow cytometry, UMUC4 cells (positive cell line); 2nd Ab only 1,114.73
ENDPOINT: flow cytometry signal at 0.1µg Ab/Sample

{"BINDER": "CLDN6 ADC: AB3-7 conjugated to MC-VC-PAB-MMAE (D4 technology) (antibody, V domains shown, antibody conjugated to MC-VC-PAB-MMAE, mostly 4 drugs per antibody; attachment residues not stated) VH: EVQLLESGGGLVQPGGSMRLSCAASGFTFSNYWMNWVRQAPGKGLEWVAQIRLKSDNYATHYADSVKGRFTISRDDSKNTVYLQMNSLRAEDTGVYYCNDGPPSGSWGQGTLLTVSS VL: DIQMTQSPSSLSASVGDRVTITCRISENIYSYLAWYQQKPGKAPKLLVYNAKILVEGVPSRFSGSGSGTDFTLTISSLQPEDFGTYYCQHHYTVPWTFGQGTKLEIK", "REPORTED": 9450}

// query Bench note: what flow cytometry signal at 0.1µg Ab/Sample did AB3-7 (antibody, V domains shown, humanized; also called AB23; humanized AB3-7) VH: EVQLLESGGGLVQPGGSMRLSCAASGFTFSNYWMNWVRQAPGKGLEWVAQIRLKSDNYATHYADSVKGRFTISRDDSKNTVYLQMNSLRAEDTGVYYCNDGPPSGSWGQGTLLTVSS VL: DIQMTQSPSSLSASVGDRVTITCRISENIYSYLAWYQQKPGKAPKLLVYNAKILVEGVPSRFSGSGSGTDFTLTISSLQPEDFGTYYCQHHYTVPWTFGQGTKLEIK show?
// result 8820

// query Here is the next binder: CLDN6 ADC: AB3-7 conjugated to CL2A-SN38 (conventional) (antibody, V domains shown, antibody conjugated to CL2A-SN38, heterogeneous drug load; attachment residues not stated) VH: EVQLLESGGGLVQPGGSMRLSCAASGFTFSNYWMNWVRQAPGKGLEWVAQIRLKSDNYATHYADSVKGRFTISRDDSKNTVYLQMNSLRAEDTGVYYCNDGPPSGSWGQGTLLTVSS VL: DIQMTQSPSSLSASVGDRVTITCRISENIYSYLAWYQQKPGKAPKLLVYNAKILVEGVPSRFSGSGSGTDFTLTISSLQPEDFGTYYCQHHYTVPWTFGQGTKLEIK
// result 9990

// query Here is the next binder: CLDN6 ADC: AB3-7 conjugated to MC-GGFG-MMAE (D4 technology) (antibody, V domains shown, antibody conjugated to MC-GGFG-MMAE, mostly 4 drugs per antibody; attachment residues not stated) VH: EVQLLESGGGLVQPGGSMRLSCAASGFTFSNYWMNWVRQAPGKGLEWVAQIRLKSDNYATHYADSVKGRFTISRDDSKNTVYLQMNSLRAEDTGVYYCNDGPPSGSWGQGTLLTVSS VL: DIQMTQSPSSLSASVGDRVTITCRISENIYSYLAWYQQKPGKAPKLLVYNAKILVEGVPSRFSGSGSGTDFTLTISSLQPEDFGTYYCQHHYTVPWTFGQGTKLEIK
// result 8790

// query Here is the next binder: CLDN6 ADC: AB3-7 conjugated to CL2A-SN38 (D4 technology) (antibody, V domains shown, antibody conjugated to CL2A-SN38, mostly 4 drugs per antibody; attachment residues not stated) VH: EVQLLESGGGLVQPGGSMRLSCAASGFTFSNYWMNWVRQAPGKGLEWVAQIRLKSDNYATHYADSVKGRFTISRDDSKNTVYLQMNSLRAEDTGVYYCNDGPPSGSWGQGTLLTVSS VL: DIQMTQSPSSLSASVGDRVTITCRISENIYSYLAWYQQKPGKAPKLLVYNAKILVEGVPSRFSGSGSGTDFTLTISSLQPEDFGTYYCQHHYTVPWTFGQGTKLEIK
// result 9140

// query Here is the next binder: CLDN6 ADC: AB3-7 conjugated to MC-GGFG-DXD (antibody, V domains shown, antibody conjugated to MC-GGFG-DXD; attachment residues not stated) VH: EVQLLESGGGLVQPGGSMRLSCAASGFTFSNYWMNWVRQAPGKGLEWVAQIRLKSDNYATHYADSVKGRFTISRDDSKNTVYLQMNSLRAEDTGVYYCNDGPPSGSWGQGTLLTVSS VL: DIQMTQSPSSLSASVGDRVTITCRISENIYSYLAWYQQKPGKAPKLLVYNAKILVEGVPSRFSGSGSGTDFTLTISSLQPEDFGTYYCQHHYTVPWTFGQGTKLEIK
// result 10500

// query Here is the next binder: CLDN6 ADC: AB3-7 conjugated to MC-VC-PAB-DXD (antibody, V domains shown, antibody conjugated to MC-VC-PAB-DXD; attachment residues not stated) VH: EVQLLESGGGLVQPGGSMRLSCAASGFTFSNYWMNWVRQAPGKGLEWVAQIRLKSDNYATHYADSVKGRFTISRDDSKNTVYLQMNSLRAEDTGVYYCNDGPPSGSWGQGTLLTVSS VL: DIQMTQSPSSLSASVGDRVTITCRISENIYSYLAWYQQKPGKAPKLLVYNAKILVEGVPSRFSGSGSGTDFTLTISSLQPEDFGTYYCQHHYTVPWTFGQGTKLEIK
// result 10800
